Tested on: SNB-78 CNS
assay-explanation: NCI tumour cell line growth inhibition, 48 h
molecules and their reported TGI
measurement-kind: TGI

molecule	assay-target	assay-value
Cn1cnc([N+](=O)[O-])c1Sc1nccn1-c1ccccc1	SNB-78 CNS	> 100 µM
COc1ccc(/C=C2\C(=O)Nc3ccccc32)cc1OC	SNB-78 CNS	> 100 µM
Cc1ccc(C)c(N2C(=O)C(=O)C(c3nc4ccccc4s3)C(=O)C2=O)c1	SNB-78 CNS	> 100 µM
CC[C@H]1[C@@H](C)C=C[C@@H](C)N1S(=O)(=O)c1ccc(C)cc1	SNB-78 CNS	> 100 µM
CC12CCC3C(CCC4(O)C=CCCC34C=O)C1(O)CC(O)C2c1ccc(=O)oc1 (stereo not given)	SNB-78 CNS	0.97 µM
Nc1ccc(N=Nc2ccc(-c3ccc(N=Nc4c(S(=O)(=O)O)cc5cc(S(=O)(=O)O)c(N=Nc6ccc([N+](=O)[O-])cc6)c(N)c5c4O)cc3)cc2)c2cc(S(=O)(=O)O)ccc12	SNB-78 CNS	> 100 µM
CCOC(=O)c1sc(Nc2cc(Cl)ccc2Cl)nc1C	SNB-78 CNS	> 100 µM
ClCc1nnc2n1-c1ccc(Cl)cc1SC2	SNB-78 CNS	18.9 µM
COc1ccc(-c2cc(=O)c3cc4c(cc3[nH]2)OCO4)c(OC)c1	SNB-78 CNS	> 100 µM
CCNc1nc2c(=O)n(C)c(=O)n(C)c2s1	SNB-78 CNS	> 100 µM

---

Tested on: T-47D breast
assay-explanation: NCI tumour cell line growth inhibition, 48 h; in the data active = GI50 below about 0.43 µM; inactive = the rest
Possible outcomes: active, inactive

> print(dat)
                                    compound  assay.target  classification
 1  COc1ccc2c(c1)OC(N)=C(C#N)C2c1ccc(F)c(F)c1 (stereo unspecified)  T-47D breast          active
 2  CCOC(=O)Cc1csc(Nc2nc(O)c(C3=c4ccccc4=NC3=O)s2)n1  T-47D breast        inactive
 3  O=C(O)c1ccc(NCn2nc(-c3ccccc3O)oc2=S)cc1O  T-47D breast        inactive
 4  N#C/C(=C\c1ccc([N+](=O)[O-])cc1)n1nnc2cc(F)c(F)cc21  T-47D breast        inactive
 5  O=C1/C(=C\c2ccc(Cl)cc2)CN(C(=O)c2ccccc2)C/C1=C\c1ccc(Cl)cc1  T-47D breast        inactive
 6  COc1ncnn2ccc(-c3cnc4nc(C)n(Cc5nnc(C(C)F)o5)c4c3)c12 (stereo unspecified)  T-47D breast          active
 7  CO[C@@H]1[C@H](N(C)C(=O)c2ccccc2)C[C@@H]2O[C@]1(C)n1c3ccccc3c3c4c(c5c6ccccc6n2c5c31)C(=O)NC4=O  T-47D breast        inactive
 8  NS(=O)(=O)c1ccc(N=Nc2c(O)[nH]c3cccc(CCc4ccncc4)c23)cc1  T-47D breast        inactive
 9  CCOC(=O)c1c2c(n(Cc3ccccc3)c1C)-c1nc[nH]c1C(=O)C2=O  T-47D breast        inactive
10                O=C(/C=C/c1cccnc1)c1ccccc1  T-47D breast        inactive
11  CCN1C2=C(SC(=S)C1=C1SC(C(=O)c3ccccc3)=C(C(=O)c3ccccc3)S1)SC(=Nc1ccccc1)C2=O  T-47D breast        inactive
12   CN(CCNc1ccc(C(=N)N)cc1)c1ccc(C(=N)N)cc1  T-47D breast        inactive
13  CC(=O)NS(=O)(=O)c1ccc(-n2nc(-c3ccccc3)cc2-c2cc(O)ccc2O)cc1  T-47D breast        inactive
14  CC[n+]1c(/C=C/c2ccc(N3CCCC3)cc2)cccc1/C=C/c1ccc(N2CCCC2)cc1  T-47D breast          active
15    COc1ccc(/C=C/C(=O)c2ccc(B(O)O)cc2)cc1O  T-47D breast        inactive
16  COc1cc2cc(Oc3ccc(NC(=O)Nc4ccc(F)c(C(F)(F)F)c4)cc3)c(C)nc2cc1OCCN1CCOCC1  T-47D breast        inactive

All values here come from PubChem BioAssay (NCI).
